Target: T1, VP16-I-mfb (mouse)
T1 chain: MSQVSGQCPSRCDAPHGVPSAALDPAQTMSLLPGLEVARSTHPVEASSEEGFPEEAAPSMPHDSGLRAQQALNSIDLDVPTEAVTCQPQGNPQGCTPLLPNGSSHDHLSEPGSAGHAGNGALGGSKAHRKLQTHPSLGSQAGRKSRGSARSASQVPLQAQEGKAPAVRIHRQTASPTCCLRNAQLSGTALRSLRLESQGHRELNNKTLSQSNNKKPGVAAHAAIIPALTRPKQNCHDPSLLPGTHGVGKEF
Experiment: yeast hybrid assay, strain L40, β-galactosidase reporter
assay-metric: β-galactosidase activity

Guide cases for β-galactosidase activity, answers given:
**Q:** Any idea what its β-galactosidase activity is? The binder is LexA-I-mfa (29-246) (other) MSLLPGLEVARSTHPVEASSEEGFPEEAAPSMPHDSGLRAQQALNSIDLDVPTEAVTCQPQGNPQGCTPLLPNGSSHDHLSEPGSAGHAGNGALGGSKAHRKLQTHPSLGSQAGRKSRGSARSASQVPLQAQEDCCVHCILSCLFCEFLTLCNILLDCATCGSCSSEDSCLCCCCCGSGECADCDLPCDLDCGIVDACCESADCLEICMECCGLCFSS
**A:** 0.7 arbitrary units

**Q:** Any idea what its β-galactosidase activity is? The binder is LexA-I-mfa (87-202) (other) QPQGNPQGCTPLLPNGSSHDHLSEPGSAGHAGNGALGGSKAHRKLQTHPSLGSQAGRKSRGSARSASQVPLQAQEDCCVHCILSCLFCEFLTLCNILLDCATCGSCSSEDSCLCCC
**A:** 0.2 arbitrary units

**Q:** Any idea what its β-galactosidase activity is? The binder is LexA-I-mfc (other) MKALTARQQEVFDLIRDHISQTGMPPTRAEIAQRLGFRSPNAAEEHLKALARKGVIEIVSGASRGIRLLQEEEEGLPLVGRVAAGEPLLAQQHIEGHYQVDPSLFKPNADFLLRVSGMSMKDIGIMDGDLLAVHKTQDVRNGQVVVARIDDEVTVKRLKKQGNKVELLPENSEFKPIVVDLRQQSFTIEGLAVGVIRNGDWLMSQVSGQCPSRCDAPHGVPSAALDPAQTMSLLPGLEVARSTHPVEASSEEGFPEEAAPSMPHDSGLRAQQALNSIDLDVPTEAVTCQPQGNPQGCTPLLPNGSSHDHLSEPGSAGHAGNGALGGSKAHRKLQTHPPQPPNRSAFRRVAWSPPRVTRNTASRAW
**A:** < 0.1 arbitrary units

Continuing:
**Q:** Any idea what its β-galactosidase activity is? The binder is LexA-I-mfa (87-246) (other) QPQGNPQGCTPLLPNGSSHDHLSEPGSAGHAGNGALGGSKAHRKLQTHPSLGSQAGRKSRGSARSASQVPLQAQEDCCVHCILSCLFCEFLTLCNILLDCATCGSCSSEDSCLCCCCCGSGECADCDLPCDLDCGIVDACCESADCLEICMECCGLCFSS
**A:** 0.6 arbitrary units

**Q:** Any idea what its β-galactosidase activity is? The binder is LexA-I-mfa (1-202) (other) MSQVSGQCPSRCDAPHGVPSAALDPAQTMSLLPGLEVARSTHPVEASSEEGFPEEAAPSMPHDSGLRAQQALNSIDLDVPTEAVTCQPQGNPQGCTPLLPNGSSHDHLSEPGSAGHAGNGALGGSKAHRKLQTHPSLGSQAGRKSRGSARSASQVPLQAQEDCCVHCILSCLFCEFLTLCNILLDCATCGSCSSEDSCLCCC
**A:** < 0.1 arbitrary units
